Reference source: patent US8138168B1

biological target: Recombinant human renin (Homo sapiens); construct: isolate the active form (residues 67-406); made in house; host or cells: FreeStyle 293-F cells (transient expression of pcDNA3.1(+)/hREN); experiment: In vitro enzymatic activity assay of renin inhibitors (fluorogenic peptide substrate); format: biochemical; settings: read-out: IC50 of Exemplified Compounds Against Renin
Sequence (P00797 67-406): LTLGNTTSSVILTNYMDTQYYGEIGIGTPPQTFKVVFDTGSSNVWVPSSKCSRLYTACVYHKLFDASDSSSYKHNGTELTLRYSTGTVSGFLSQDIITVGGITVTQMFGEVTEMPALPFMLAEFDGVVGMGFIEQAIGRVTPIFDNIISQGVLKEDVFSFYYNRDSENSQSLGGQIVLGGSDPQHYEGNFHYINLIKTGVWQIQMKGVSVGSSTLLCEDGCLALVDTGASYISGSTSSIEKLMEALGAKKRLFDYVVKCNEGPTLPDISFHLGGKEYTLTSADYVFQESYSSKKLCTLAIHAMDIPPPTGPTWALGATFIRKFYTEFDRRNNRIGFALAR
# key: entry, value: IC50
measured_attribute: IC50

{"structure": "CC(=O)NCCn1c([C@@H]2CCCN(C(=O)C[C@H](N)Cc3ccc(-c4ccc(O)nc4)cc3)C2)nc2c(Cl)cccc21", "measured_attribute": "IC50", "value_reported": "100 to 1000 nM"}
{"structure": "COCCCn1c([C@@H]2CCCN(C(=O)C[C@H](N)Cc3ccc(-c4ccccc4Cl)cc3)C2)nc2ccccc21", "measured_attribute": "IC50", "value_reported": "< 100 nM"}
{"structure": "CC(=O)NCCn1c([C@@H]2CCCN(C(=O)C[C@H](N)Cc3ccc(-c4ccc5c(c4)OC(F)(F)O5)cc3)C2)nc2ccccc21", "measured_attribute": "IC50", "value_reported": "100 to 1000 nM"}
{"structure": "COCCCn1c([C@@H]2CCCN(C(=O)C[C@H](N)Cc3ccc(-c4cc[nH]c4)cc3)C2)nc2ccccc21", "measured_attribute": "IC50", "value_reported": "< 100 nM"}
{"structure": "COCCCn1c([C@@H]2CCCN(C(=O)C[C@H](N)Cc3ccc(-c4ccc(C(=O)NCCO)nc4)cc3)C2)nc2ccccc21", "measured_attribute": "IC50", "value_reported": "< 100 nM"}
{"structure": "COCCCn1c([C@@H]2CCCN(C(=O)C[C@H](N)Cc3ccc(-c4ccc(C(=O)NCCOC)nc4)cc3)C2)nc2ccccc21", "measured_attribute": "IC50", "value_reported": "< 100 nM"}
